System: XF498
EXPERIMENTAL DETAILS: NCI tumour cell line growth inhibition, 48 h
Calls of active or inactive are those of the source. No stated cut-off is given here; in the data, active = GI50 up to about 1.1 µM and inactive = higher.
In this section we review reported GI50 values for a set of molecules.
QUANTITY: GI50

In [3]: df
Out[3]:
                                   molecule               result
0  COc1ccc2c(c1)[n+]([O-])c(C(=O)C/C(=N/OCCCc1ccccc1)C(=O)NC13CC4CC(CC(C4)C1)C3)c(C)[n+]2[O-]  > 100 µM (inactive)
1  CCOc1ccc(NCC2CC/C(=C\c3ccc(Cl)cc3)C2=O)cc1 (stereo not drawn)   19.3 µM (inactive)
2  Cc1cc2c(C)n(Cc3ccc(Cl)cc3Cl)nc2c(C(=O)O)c1C  > 100 µM (inactive)
3  CCCCOP1(=O)CC(C)=C(Cl)C(C)(OC)C1 (stereo not drawn)  > 100 µM (inactive)
4  CCCCCCCCCCCC(=O)OCC1OC(OC)C(NC(=O)N(CCCl)N=O)C(O)C1O (stereo not drawn)   12.4 µM (inactive)
5  CCOC(=O)C1=C(Nc2ccccc2)SC/C1=N\NC(=O)Cc1ccccc1  > 100 µM (inactive)
6  COc1ccc(NC(=O)C2=CC(=O)c3ccc(O)cc3C2=O)c(OC)c1  > 100 µM (inactive)
7  CCCCCCCCCCCCCCCc1ccc(OCC(O)CO)cc1 (stereo not drawn)   19.4 µM (inactive)
